Origin of the recorded values: the supplement of paper PMC7877785

Hi there, I'd appreciate the recorded self-splicing fitness (ln) for every entry that follows.
measurement.protocol: self-splicing fitness, log relative to wild type (ln ratio); higher = more splicing; Tetrahymena group I intron in knt gene, E. coli kanamycin selection, DiMSum; sequences stand for … in CUCUCU…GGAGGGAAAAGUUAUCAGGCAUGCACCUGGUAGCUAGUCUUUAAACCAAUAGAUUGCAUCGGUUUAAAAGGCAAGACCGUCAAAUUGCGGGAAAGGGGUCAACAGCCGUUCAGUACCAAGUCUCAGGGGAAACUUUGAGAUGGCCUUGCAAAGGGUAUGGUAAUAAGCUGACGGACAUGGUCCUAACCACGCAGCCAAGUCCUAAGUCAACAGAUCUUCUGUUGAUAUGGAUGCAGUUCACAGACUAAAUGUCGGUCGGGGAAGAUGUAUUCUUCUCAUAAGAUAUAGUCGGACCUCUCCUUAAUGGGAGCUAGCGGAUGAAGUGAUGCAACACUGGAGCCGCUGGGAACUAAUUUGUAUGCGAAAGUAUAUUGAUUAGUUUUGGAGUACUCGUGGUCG;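 further: selection with 25 µg/mL kanamycin versus none on LB agar overnight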
conditions.used: 30 °C
Give bare numbers.

Use these answered entries as a reference point.
UUGGAGCAAUAUUACGUAUU | -4.53
AGUGAGCAAUAUUACGUAUA | -2.18
CUUAAGCAAUAUUACGGGCU | -3.84
AUCCAGCAAUAUUACGACAU | 0.00336
GGAGAGCAAUAUUACGAGUC | -3.63
GUACAGCAAUAUUACGGAGG | -3.92
GUCAAGCAAUAUUACGUGCU | -3.07
GAGCAGCAAUAUUACGGAUU | -1.2
CGCAAGCAAUAUUACGUAUU | -3.08
GUAUAGCAAUAUUACGCUAU | -3.33

Batch request: self-splicing fitness (ln) per item, same order as input.
1. GAUAAGCAAUAUUACGGAUU
2. AUGAAGCAAUAUUACGCCAA
3. GAGGAGCAAUAUUACGCAGA
4. AACUAGCAAUAUUACGGGCC
5. AUCCAGCAAUAUUACGAACA

1. -3.19
2. -0.427
3. -3.91
4. -1.81
5. -0.801

Entry UCUUAGCAAUAUUACGAUCG — recorded self-splicing fitness (ln) = -1.44
